- Tested on: A549 NSCLC
- assay-summary: NCI tumour cell line growth inhibition, 48 h
measurement-type: TGI

molecule | result
CN(C)NC1=C([N+](=O)[O-])C=NN(c2ccccc2)C1 | 3.87 µM
CC(Br)CN1CCOCC1 (stereo not drawn) | > 100 µM
O=C(NN1C(=O)CS(=O)(=O)C1c1ccc(Cl)c(Cl)c1)c1ccncc1 (stereo not drawn) | > 100 µM
C=C(C)C1CC[C@@](C)(O)[C@H](C#N)C1 (stereo partly drawn) | > 100 µM
Nc1[nH]nc2nc(-c3cc(Cl)ccc3Cl)cc(-c3ccc(F)cc3)c12 | 87.3 µM
O=c1[nH]c(=O)c2c([nH]1)[nH]c1ccc(Br)cc12 | > 100 µM
CCOC(=O)c1ncn(CCc2ccc(Cl)cc2)c1C | > 100 µM
COC(=O)/C=C/CCC#Cc1ccccc1C#CCC/C=C/C(=O)OC | > 100 µM
O=C1Nc2ccc(Br)cc2/C1=N/S(=O)(=O)O | 78.9 µM
C/C=C(\N=C=S)C(=O)OC1C(COC(C)=O)OC([C@]2(O)CC(=O)C(=N)C(C(=O)O)=C2O)C(O)C1OC1CC(OC)C(O)([C@@H](C)OC(=O)[C@@H](C)CC)C(C)O1 (stereo partly drawn) | > 80.6 µM
O=C(Nc1nc(-c2ccc(Cl)cc2)cs1)c1cc(O)c(O)c(O)c1 | > 5000 µM
CN(c1ccccc1)c1cc2ccccc2nn1 | > 100 µM
Cc1ccc(C[As+](c2ccccc2)(c2ccccc2)c2ccccc2)cc1 | 35.8 µM
O=C(O)c1ccc2c(c1)C(=O)N(c1ccc(S(=O)(=O)c3ccc(N4C(=O)c5ccc(C(=O)O)cc5C4=O)cc3)cc1)C2=O | > 100 µM
Cc1ccc(N)cc1[As]=[As]c1cc(N)ccc1C (stereo not drawn) | 20 µM
CN(C)c1ccc(/C=C(\C#N)c2cc3ccccc3[nH]2)cc1 | > 100 µM
COC(=O)[C@]12CC[C@@H](C)[C@H](C)[C@@H]1C1=CC[C@@H]3[C@@]4(C)C(C=O)=C[C@@](C)(CO)[C@@H]4[C@H](O)C[C@@]3(C)[C@]1(C)CC2 | 14.6 µM
C=C1C(=O)O[C@H]2[C@H]1CC/C(COC(=O)c1cccnc1N)=C\CC[C@@]1(C)O[C@@H]21 | 16.5 µM

---

- Test system: OVCAR-5 ovarian
- assay-summary: NCI tumour cell line growth inhibition, 48 h
The entries below are paired with their reported TGI.
measurement-type: TGI

compound | measurement-type | result
CC1OC(n2cc(C(F)(F)F)c(=O)[nH]c2=O)C=CC1=O (stereo not given) | TGI | 33.5 µM
C/C=C/c1cc2c(cc1O)CC[C@@H]1[C@@H]2CC[C@]2(C)[C@@H](O)CC[C@@H]12 | TGI | 25.4 µM
O=C(O)c1ccc2c(c1)C(=O)N(c1ccc(S(=O)(=O)c3ccc(N4C(=O)c5ccc(C(=O)O)cc5C4=O)cc3)cc1)C2=O | TGI | > 100 µM
CC[C@H](C)[C@@H]([C@@H](CC(=O)N1CCC[C@H]1[C@H](OC)[C@@H](C)C(=O)NCCc1ccccc1)OC)N(C)C(=O)C(NC(=O)[C@H](C(C)C)N(C)C)C(C)C (stereo not given in full) | TGI | > 10 µM
CNc1cc([N+](=O)[O-])ccc1C(=O)N1CCC[C@H]1CO | TGI | > 100 µM
CC12OC(CC(O)C1O)n1c3ccccc3c3c4c(c5c6ccccc6n2c5c31)C(=O)N(CCN1CCOCC1)C4=O (stereo not given) | TGI | 9.65 µM
C[C@@H](Nc1cc(F)cc(F)c1)c1cc(C(=O)N(C)C)cc2c(=O)cc(N3CCOCC3)oc12 | TGI | > 100 µM
COC(=O)C1(C(=O)OC)N=C(C)OC1c1ccccc1O (stereo not given) | TGI | > 100 µM
Cc1cccc(NC(=O)C(=O)C(C2OC(=O)c3ccccc32)[N+](=O)[O-])c1C (stereo not given) | TGI | 33.3 µM
C/C(=C\COP(=O)(O)OP(=O)(O)O)CCCCCCOCc1ccccc1 | TGI | > 100 µM
COc1ccc(-c2sc(Br)c3c2C(=O)C2OC(=O)NC32)cc1OC (stereo not given) | TGI | > 100 µM
CCOP(=O)(C/C=C/Cn1ncc(=O)[nH]c1=O)OCC | TGI | > 100 µM
c1ccc(-c2[nH]ncc2-c2ccnc(-c3ccc(OCCN4CCOCC4)cc3)c2)nc1 | TGI | > 25 µM
CN1CCN(c2cc3nc(-c4ccc(Cl)cc4)[nH]c3cc2F)CC1 | TGI | 48.9 µM
O=C1/C(=C\c2ccc(F)cc2)CN(C(=O)c2ccccc2F)C/C1=C\c1ccc(F)cc1 | TGI | 4.04 µM
NC(=O)c1c(NC(=O)c2cccs2)sc2c1CCC(=O)C2 | TGI | 9.23 µM
Cc1ccccc1NC(=O)/C(=N\NC(N)=S)C(C#N)c1ccccc1 (stereo not given) | TGI | > 100 µM
Cc1ccc(Sc2ccccc2C23OC(C)(C4C(=O)N(c5ccccc5)C(=O)C42)N(C)C3=O)cc1 (stereo not given) | TGI | > 100 µM
Cc1ccc(/C=N/NC(=O)c2ccccc2Oc2ccccc2)o1 | TGI | > 100 µM
COC(=O)c1c[nH]c2cc(OC(C)C)c(OC(C)C)cc2c1=O | TGI | > 100 µM

---

The entries below are paired with their reported GI50.
- Test system: OVCAR-3 ovarian
- assay-summary: NCI tumour cell line growth inhibition, 48 h

molecule | GI50
CNC(=O)ON(C(C)=O)C(=O)NC | > 81900 nM
COC(=O)c1c[nH]c2cc(OC(C)C)c(OC(C)C)cc2c1=O | > 100000 nM
Cc1ccc(C[As+](c2ccccc2)(c2ccccc2)c2ccccc2)cc1 | 611 nM
O=C(/C=C/c1ccccc1)c1cccc2ccccc12 | 2010 nM
COc1ccc(Oc2nc3cc(N)cc(N)c3nc2-c2ccccc2)cc1 | 14900 nM
Nc1[nH]nc2nc(-c3cc(Cl)ccc3Cl)cc(-c3ccc(F)cc3)c12 | 24000 nM
COc1ccc(Cn2cc(COc3cc(/C=C/C(=O)c4cc(OC)c(OC)c(OC)c4)ccc3OC)nn2)cc1 | 2620 nM
NC(=O)c1c(NC(=O)c2cccs2)sc2c1CCC(=O)C2 | 1800 nM
COc1ccc(OC)c(Nc2nc3nonc3nc2Nc2cccc(Br)c2)c1 | 600 nM
O=C(Oc1ccccc1)N(c1ccccc1)c1ccccc1 | 23700 nM
Cc1ccc(N)cc1[As]=[As]c1cc(N)ccc1C (configuration not stated) | 1620 nM
O=C(Nc1nc(-c2ccc(Cl)cc2)cs1)c1cc(O)c(O)c(O)c1 | 245000 nM
CC12OC(CC(O)C1O)n1c3ccccc3c3c4c(c5c6ccccc6n2c5c31)C(=O)N(CCN1CCOCC1)C4=O (configuration not stated) | 1550 nM
COC(=O)[C@H](Cc1cn(C)cn1)NC(=O)[C@H](CC(=O)OCc1ccccc1)NC(=O)Nc1cc(C(F)(F)F)cc(C(F)(F)F)c1 | 2500 nM
CN1CCC2(CC1)N=C(SCC(=O)Nc1cnc3ccccc3c1)C(c1ccc(Br)cc1)=N2 | 3290 nM
CN1CCN(CCCNC(=O)c2c3c(n4ccccc24)C(=O)c2ncccc2C3=O)CC1 | 400 nM
CCc1nc(C)cn1C(=O)OCc1nc2nc(Cl)nc(N3CCOCC3)c2[nH]1 | 636 nM

---

- Tested on: SR leukemia
- assay-summary: NCI tumour cell line growth inhibition, 48 h

compound | GI50
COc1cccc2c1C(=O)c1c(O)c3c(c(O)c1C2=O)C[C@@](O)(/C(CO)=N/NC(=O)CCCCCN1C(=O)C=CC1=O)C[C@@H]3O[C@H]1C[C@H](N)[C@H](O)[C@H](C)O1 | 0.109 µM
C#C[C@@]1(O)[C@@H](CO)O[C@@H](n2cc(Br)c3c(Cl)ccnc32)[C@@H]1O | 1.06 µM
Cc1nc2sc(C(=O)Nc3cccc(Br)c3C)c(N)c2cc1C(O)c1ccccc1 (centres undefined) | 0.0374 µM
COC(=O)c1c[nH]c2cc(OC(C)C)c(OC(C)C)cc2c1=O | > 100 µM
CNC(=O)ON(C(C)=O)C(=O)NC | 7.31 µM
NC(=O)c1c(NC(=O)c2cccs2)sc2c1CCC(=O)C2 | 1.43 µM
CCCCC(=O)N(c1ccc(Nc2c3ccccc3nc3cc([N+](=O)[O-])ccc23)cc1)S(C)(=O)=O | 1.97 µM
Nc1[nH]nc2nc(-c3cc(Cl)ccc3Cl)cc(-c3ccc(F)cc3)c12 | 18 µM
Cn1c(CCCC(=O)O)nc2cc(N(CCCl)CCCl)ccc21 | 40.4 µM
COc1ccc(Cn2cc(COc3cc(/C=C/C(=O)c4cc(OC)c(OC)c(OC)c4)ccc3OC)nn2)cc1 | 2.7 µM
NCCCNc1nc2ccccc2c2c(=O)c3cc(F)ccc3sc12 | 1.48 µM
Cc1ccc(/C=N/NC(=O)c2ccccc2Oc2ccccc2)o1 | 40 µM
CN1CCC2(CC1)N=C(SCC(=O)Nc1cnc3ccccc3c1)C(c1ccc(Br)cc1)=N2 | 2.07 µM
COC(=O)C1C(C(=O)O)C2(c3ccccc3)C(=O)C1(c1ccccc1)C(c1ccccc1)=C2c1ccccc1 (centres undefined) | 23.8 µM
C=C1c2nc3ccccc3n2C=C(c2cccc(Cl)c2)N1Cc1ccc(OC)cc1 | 0.274 µM
CCOc1cc(-c2nncn2C)ccc1Nc1ncc2cc(C)nc(NCC(C)(C)C)c2n1 | 0.15 µM
Nc1ccccc1C#C/C=C\C#Cc1ccccc1C#CCO | 0.405 µM
C=CCn1c2ccccc2c2c3c(c4c5ccccc5n(CC=C)c4c21)C(=O)N(O)C3=O | 0.363 µM
CC12OC(CC(O)C1O)n1c3ccccc3c3c4c(c5c6ccccc6n2c5c31)C(=O)N(CCN1CCOCC1)C4=O (centres undefined) | 0.176 µM
